Recorded below: pIC50, system UniProtKB P00533.
// pIC50 is dimensionless: -log10 of concentration (M)

STRUCTURE_SMILES_STRING: COc1cc(CO)ccc1-c1cc2c(N[C@H](C)c3ccccc3)ncnc2s1
STUDY_TARGET: UniProtKB P00533
MEASUREMENT_TYPE: pIC50
OBS_VALUE: 9.22

Lookup: pIC50 / UniProtKB P00533 / `COc1cc(CO)ccc1-c1cc2c(NCc3ccccc3)ncnc2[nH]1` 9.30

Lookup: pIC50 / UniProtKB P00533 / `C[C@@H](Nc1ncnc2sc(-c3ccc(O)cc3)cc12)c1ccccc1` 7.08

Lookup: pIC50 / UniProtKB P00533 / `COc1ccccc1-c1cc2c(N[C@H](CO)c3ccccc3)ncnc2[nH]1` 9.30

Lookup: pIC50 / UniProtKB P00533 / `COc1cccc(OC)c1-c1cc2c(N[C@H](CO)c3ccccc3)ncnc2s1` 9.10

###

STUDY_TARGET: EGFR (human), P00533 [L861Q]
Sequence (P00533 whole entry L861Q, looked up): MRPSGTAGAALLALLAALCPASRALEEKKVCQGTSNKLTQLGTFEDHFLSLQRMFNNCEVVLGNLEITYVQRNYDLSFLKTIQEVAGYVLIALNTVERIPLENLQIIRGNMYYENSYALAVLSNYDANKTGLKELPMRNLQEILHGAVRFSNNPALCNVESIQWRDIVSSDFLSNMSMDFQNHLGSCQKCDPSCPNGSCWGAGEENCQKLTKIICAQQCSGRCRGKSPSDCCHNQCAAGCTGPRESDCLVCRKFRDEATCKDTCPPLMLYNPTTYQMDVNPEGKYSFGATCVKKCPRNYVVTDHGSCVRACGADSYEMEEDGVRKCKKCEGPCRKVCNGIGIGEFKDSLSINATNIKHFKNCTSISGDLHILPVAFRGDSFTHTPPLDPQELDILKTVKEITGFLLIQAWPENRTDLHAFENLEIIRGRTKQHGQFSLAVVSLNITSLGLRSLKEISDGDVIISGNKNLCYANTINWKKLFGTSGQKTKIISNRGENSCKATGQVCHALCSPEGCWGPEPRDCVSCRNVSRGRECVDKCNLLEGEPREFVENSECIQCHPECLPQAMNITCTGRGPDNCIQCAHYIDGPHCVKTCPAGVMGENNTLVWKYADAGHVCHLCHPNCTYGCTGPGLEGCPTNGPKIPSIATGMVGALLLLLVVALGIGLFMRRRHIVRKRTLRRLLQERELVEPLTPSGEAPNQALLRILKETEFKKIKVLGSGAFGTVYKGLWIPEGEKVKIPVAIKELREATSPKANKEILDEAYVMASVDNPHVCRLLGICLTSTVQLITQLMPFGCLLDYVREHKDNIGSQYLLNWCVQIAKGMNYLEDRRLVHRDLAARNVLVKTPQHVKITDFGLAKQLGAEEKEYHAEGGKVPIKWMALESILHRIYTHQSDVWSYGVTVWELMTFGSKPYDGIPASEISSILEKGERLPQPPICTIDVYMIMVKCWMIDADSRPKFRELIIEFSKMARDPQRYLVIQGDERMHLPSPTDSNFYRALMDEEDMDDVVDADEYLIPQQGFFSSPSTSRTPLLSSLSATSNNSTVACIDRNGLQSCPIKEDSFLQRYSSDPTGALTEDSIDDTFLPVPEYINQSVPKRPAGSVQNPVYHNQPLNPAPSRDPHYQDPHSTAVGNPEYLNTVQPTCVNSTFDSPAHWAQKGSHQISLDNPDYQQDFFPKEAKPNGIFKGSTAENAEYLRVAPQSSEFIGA
ASSAY: Enzyme Assay
# reported pIC50; entries follow
// pIC50 is dimensionless: -log10 of concentration (M)

Known results for molecules:
STRUCTURE_SMILES_STRING: COc1cc(CO)ccc1-c1cc2c(NCc3ccccc3)ncnc2[nH]1
pIC50: 9.40
--
STRUCTURE_SMILES_STRING: COc1cc(CO)ccc1-c1cc2c(N[C@H](CO)c3ccc(F)cc3)ncnc2[nH]1
pIC50: 9.30

Now turn to the next molecule.
Record request: pIC50 value, item `COc1cc(C=O)ccc1-c1cc2c(N[C@H](CO)c3ccccc3)ncnc2s1` 9.10

###

STUDY_TARGET: EGFR (human)
MEASUREMENT_TYPE: IC50
Put your answer as a value accompanied by its unit after it.

Known results for compounds:
STRUCTURE_SMILES_STRING: COc1cc(F)ccc1-c1cc2c(N[C@H](C)c3ccccc3)ncnc2s1
MEASUREMENT_TYPE: IC50
OBS_VALUE: 6.3 nM

STRUCTURE_SMILES_STRING: COc1cc(C=O)ccc1-c1cc2c(N[C@H](CO)c3ccccc3)ncnc2s1
MEASUREMENT_TYPE: IC50
OBS_VALUE: 0.8 nM

STRUCTURE_SMILES_STRING: C[C@@H](Nc1ncnc2sc(-c3cccc(O)c3)cc12)c1ccccc1
MEASUREMENT_TYPE: IC50
OBS_VALUE: 45 nM

Record request: IC50 value, item `OCc1ccc(-c2cc3c(N[C@H](CO)c4ccccc4)ncnc3s2)cc1` 2.2 nM

Record request: IC50 value, item `COc1cc(CO)ccc1-c1cc2c(N[C@H](C)c3ccccc3)ncnc2[nH]1` 0.2 nM

Record request: IC50 value, item `COc1cccc(-c2cc3c(N[C@H](C)c4ccccc4)ncnc3s2)c1` 37 nM

Record request: IC50 value, item `COc1cc(CO)ccc1-c1cc2c(N[C@H](CO)c3ccc(F)cc3)ncnc2[nH]1` 0.3 nM

Record request: IC50 value, item `C[C@@H](Nc1ncnc2sc(-c3cccc(CO)c3)cc12)c1ccccc1` 9.1 nM

Record request: IC50 value, item `Oc1ccccc1-c1cc2c(NCc3ccccc3)ncnc2s1` 29 nM

Record request: IC50 value, item `COc1cc(C=O)ccc1-c1cc2c(N[C@H](C)c3ccccc3)ncnc2[nH]1` 0.5 nM

Record request: IC50 value, item `COc1cc(F)ccc1-c1cc2c(N[C@H](CO)c3ccccc3)ncnc2[nH]1` 1 nM

Record request: IC50 value, item `Cc1ccccc1-c1cc2c(N[C@H](C)c3ccccc3)ncnc2s1` 153 nM

###

STUDY_TARGET: EGFR (human) (UniProt P00533)
Sequence (P00533 whole entry, looked up): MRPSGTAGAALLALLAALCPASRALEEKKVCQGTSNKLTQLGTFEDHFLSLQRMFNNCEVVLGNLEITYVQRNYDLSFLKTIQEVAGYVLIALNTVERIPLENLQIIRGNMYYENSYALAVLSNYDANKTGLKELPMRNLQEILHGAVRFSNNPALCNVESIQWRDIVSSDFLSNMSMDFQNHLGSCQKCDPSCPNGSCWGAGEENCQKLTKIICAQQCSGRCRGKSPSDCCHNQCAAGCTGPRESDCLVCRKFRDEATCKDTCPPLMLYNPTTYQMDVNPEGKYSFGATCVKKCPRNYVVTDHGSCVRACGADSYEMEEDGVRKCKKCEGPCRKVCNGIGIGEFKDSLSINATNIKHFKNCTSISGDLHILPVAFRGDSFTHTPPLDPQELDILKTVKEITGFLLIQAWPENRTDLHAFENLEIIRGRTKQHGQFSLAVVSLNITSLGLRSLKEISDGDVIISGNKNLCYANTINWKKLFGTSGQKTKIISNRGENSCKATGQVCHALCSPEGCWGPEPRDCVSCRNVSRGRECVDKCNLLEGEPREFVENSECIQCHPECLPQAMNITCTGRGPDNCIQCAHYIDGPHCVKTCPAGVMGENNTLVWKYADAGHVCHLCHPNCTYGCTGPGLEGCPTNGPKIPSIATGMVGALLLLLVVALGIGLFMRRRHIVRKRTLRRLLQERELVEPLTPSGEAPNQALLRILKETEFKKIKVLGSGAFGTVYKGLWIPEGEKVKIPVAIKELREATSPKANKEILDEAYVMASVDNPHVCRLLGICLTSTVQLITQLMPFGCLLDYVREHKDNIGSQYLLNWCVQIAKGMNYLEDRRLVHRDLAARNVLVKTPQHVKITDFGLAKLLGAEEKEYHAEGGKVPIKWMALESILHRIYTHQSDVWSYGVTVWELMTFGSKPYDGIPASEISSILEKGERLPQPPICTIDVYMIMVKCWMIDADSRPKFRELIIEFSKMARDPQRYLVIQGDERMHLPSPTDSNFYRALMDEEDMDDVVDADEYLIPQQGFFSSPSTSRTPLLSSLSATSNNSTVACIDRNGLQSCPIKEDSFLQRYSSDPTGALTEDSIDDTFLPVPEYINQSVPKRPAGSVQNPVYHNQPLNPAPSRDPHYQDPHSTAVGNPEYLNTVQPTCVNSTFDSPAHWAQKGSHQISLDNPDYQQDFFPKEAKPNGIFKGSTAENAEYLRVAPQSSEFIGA
pIC50: −log10 of the molar value.
Is pIC50 at least 9? Then criterion met. If not, criterion not met.

Examples with answers:
STRUCTURE_SMILES_STRING: COc1ccc(C=O)cc1-c1cc2c(N[C@H](C)c3ccccc3)ncnc2s1
STUDY_TARGET: EGFR (human) (UniProt P00533)
CLASS: criterion not met
//
STRUCTURE_SMILES_STRING: COc1cc(CO)ccc1-c1cc2c(N[C@H](CO)c3ccccc3)ncnc2s1
STUDY_TARGET: EGFR (human) (UniProt P00533)
CLASS: criterion met

Decide: is the reported value of pIC50 for `COc1cc(CO)ccc1-c1cc2c(NCc3ccccc3)ncnc2s1` equal to or greater than 9? criterion not met

###

STUDY_TARGET: EGFR (human), P00533 [L861Q]
ASSAY: Enzyme Assay
MEASUREMENT_TYPE: pIC50
// pIC50 is dimensionless: -log10 of concentration (M)

Known results for compounds:
STRUCTURE_SMILES_STRING: COc1ccccc1-c1cc2c(N[C@H](CO)c3ccccc3)ncnc2s1
STUDY_TARGET: EGFR (human), P00533 [L861Q]
MEASUREMENT_TYPE: pIC50
OBS_VALUE: 9.00
//
STRUCTURE_SMILES_STRING: OC[C@@H](Nc1ncnc2[nH]c(-c3ccccc3)cc12)c1ccccc1
STUDY_TARGET: EGFR (human), P00533 [L861Q]
MEASUREMENT_TYPE: pIC50
OBS_VALUE: 9.00
//
STRUCTURE_SMILES_STRING: OCc1ccc(-c2cc3c(N[C@H](CO)c4ccccc4)ncnc3[nH]2)cc1
STUDY_TARGET: EGFR (human), P00533 [L861Q]
MEASUREMENT_TYPE: pIC50
OBS_VALUE: 9.70

Now turn to the next compound.
Record request: pIC50 value, item `COc1ccccc1-c1cc2c(N[C@H](C)c3ccccc3)ncnc2s1` 8.04

###

STUDY_TARGET: EGFR (human), P00533 [L858R]
Sequence (P00533 whole entry L858R, looked up): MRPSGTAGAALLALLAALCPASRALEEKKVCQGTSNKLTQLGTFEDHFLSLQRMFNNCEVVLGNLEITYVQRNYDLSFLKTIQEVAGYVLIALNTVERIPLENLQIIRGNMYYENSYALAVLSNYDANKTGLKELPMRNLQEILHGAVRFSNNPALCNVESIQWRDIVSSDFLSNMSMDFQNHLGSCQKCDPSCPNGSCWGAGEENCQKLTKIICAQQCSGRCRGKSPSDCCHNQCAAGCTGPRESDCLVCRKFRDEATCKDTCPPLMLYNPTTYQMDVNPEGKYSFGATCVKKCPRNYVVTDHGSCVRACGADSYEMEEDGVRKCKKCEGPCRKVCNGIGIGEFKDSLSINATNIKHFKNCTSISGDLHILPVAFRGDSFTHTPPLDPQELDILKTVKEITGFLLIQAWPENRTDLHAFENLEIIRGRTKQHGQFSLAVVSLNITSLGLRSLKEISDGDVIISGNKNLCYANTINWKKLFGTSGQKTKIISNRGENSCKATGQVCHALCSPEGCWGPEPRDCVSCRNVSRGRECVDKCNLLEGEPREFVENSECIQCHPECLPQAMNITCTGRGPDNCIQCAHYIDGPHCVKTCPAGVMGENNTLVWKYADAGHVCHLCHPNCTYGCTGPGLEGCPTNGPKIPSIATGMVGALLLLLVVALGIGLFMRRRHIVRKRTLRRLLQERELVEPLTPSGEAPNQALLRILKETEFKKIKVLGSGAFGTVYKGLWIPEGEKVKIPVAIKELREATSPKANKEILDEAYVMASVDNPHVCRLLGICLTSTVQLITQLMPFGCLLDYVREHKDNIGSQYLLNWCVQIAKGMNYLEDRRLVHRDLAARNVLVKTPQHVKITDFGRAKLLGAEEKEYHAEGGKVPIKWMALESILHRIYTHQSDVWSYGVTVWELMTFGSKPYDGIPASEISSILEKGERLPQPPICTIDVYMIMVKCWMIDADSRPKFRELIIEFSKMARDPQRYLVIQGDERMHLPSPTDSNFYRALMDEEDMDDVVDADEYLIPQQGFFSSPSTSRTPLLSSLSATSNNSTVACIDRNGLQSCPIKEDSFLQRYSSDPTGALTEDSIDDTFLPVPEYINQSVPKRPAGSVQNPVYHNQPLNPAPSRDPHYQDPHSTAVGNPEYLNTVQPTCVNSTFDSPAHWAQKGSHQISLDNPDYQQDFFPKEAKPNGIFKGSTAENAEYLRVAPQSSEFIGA
ASSAY: Cell-Based Assay
EXPERIMENTAL_CONTEXT: ba/f3
# reported IC50; entries follow
# unit: nM | format: bare number

Known results for compounds:
STRUCTURE_SMILES_STRING: COc1cc(CO)ccc1-c1cc2c(N[C@H](CO)c3ccc(F)cc3)ncnc2[nH]1
STUDY_TARGET: EGFR (human), P00533 [L858R]
UNITS_SYMBOL: nM
IC50: 83

STRUCTURE_SMILES_STRING: OC[C@@H](Nc1ncnc2[nH]c(-c3ccccc3)cc12)c1ccccc1
STUDY_TARGET: EGFR (human), P00533 [L858R]
UNITS_SYMBOL: nM
IC50: 127

Record request: IC50 value, item `COc1cc(CO)ccc1-c1cc2c(N[C@H](C)c3ccccc3)ncnc2[nH]1` 99

Record request: IC50 value, item `OCc1ccc(-c2cc3c(N[C@H](CO)c4ccccc4)ncnc3[nH]2)cc1` 172

Record request: IC50 value, item `COc1ccccc1-c1cc2c(N[C@H](CO)c3ccccc3)ncnc2[nH]1` 134

###

STUDY_TARGET: EGFR (human), P00533 [L861Q]
ASSAY: Enzyme Assay
# reported pIC50; entries follow
// pIC50 is dimensionless: -log10 of concentration (M)

Known results for compounds:
STRUCTURE_SMILES_STRING: OCc1ccc(-c2cc3c(N[C@H](CO)c4ccccc4)ncnc3s2)cc1
STUDY_TARGET: EGFR (human), P00533 [L861Q]
pIC50: 8.80
--
STRUCTURE_SMILES_STRING: COc1cc(C=O)ccc1-c1cc2c(N[C@H](C)c3ccccc3)ncnc2s1
STUDY_TARGET: EGFR (human), P00533 [L861Q]
pIC50: 8.41
--
STRUCTURE_SMILES_STRING: COc1cc(CO)ccc1-c1cc2c(N[C@H](C)c3ccccc3)ncnc2[nH]1
STUDY_TARGET: EGFR (human), P00533 [L861Q]
pIC50: 9.70

Record request: pIC50 value, item `COc1cc(CO)ccc1-c1cc2c(N[C@H](CO)c3ccccc3)ncnc2s1` 9.52

Record request: pIC50 value, item `COc1cc(CO)ccc1-c1cc2c(N[C@H](C)c3ccccc3)ncnc2s1` 9.22

Record request: pIC50 value, item `COc1ccccc1-c1cc2c(N[C@H](CO)c3ccccc3)ncnc2[nH]1` 9.70
